Please go through the items and note down their Purity.
Experiment: Assay 1: stability (influencing factor tests: high temperature, high humidity, illumination) of amorphous form and crystal forms I, II, VII; content and purity by HPLC
Assay type: physicochemical
Settings: Illumination 45001x ± 5001x, Day 14
Hi, when you answer, please include the unit after the number. Thanks!

Give me measured Purity, please, for this compound: CN(C)c1cc(CN2CC3CC3C2)c(O)c2c1C[C@H]1C[C@H]3[C@H](N(C)C)C(O)=C(C(N)=O)C(=O)[C@@]3(O)C(O)=C1C2=O (single isomer, unassigned) [Crystal form II] 96.2%

Return the recorded Purity value; entry: CN(C)c1cc(CN2CC3CC3C2)c(O)c2c1C[C@H]1C[C@H]3[C@H](N(C)C)C(O)=C(C(N)=O)C(=O)[C@@]3(O)C(O)=C1C2=O (stereo partly shown) [Amorphous form] 92.9%

Specify Purity for CN(C)c1cc(CN2CC3CC3C2)c(O)c2c1C[C@H]1C[C@H]3[C@H](N(C)C)C(O)=C(C(N)=O)C(=O)[C@@]3(O)C(O)=C1C2=O (stereo partly shown) [Crystal form VII] and stop. 96.6%

Specify Purity for CN(C)c1cc(CN2CC3CC3C2)c(O)c2c1C[C@H]1C[C@H]3[C@H](N(C)C)C(O)=C(C(N)=O)C(=O)[C@@]3(O)C(O)=C1C2=O (stereo partly shown) [Crystal form I] and stop. 98.1%

====

Test: Assay 1: stability (influencing factor tests: high temperature, high humidity, illumination) of amorphous form and crystal forms I, II, VII; content and purity by HPLC
Assay type: physicochemical
Settings: High temperature 60° C., Day 7
Task for the reader: assign each of the following compounds its reported Purity.

Identify measured Purity corresponding to CN(C)c1cc(CN2CC3CC3C2)c(O)c2c1C[C@H]1C[C@H]3[C@H](N(C)C)C(O)=C(C(N)=O)C(=O)[C@@]3(O)C(O)=C1C2=O (single isomer, unassigned) [Crystal form II] 96.1%

Return Purity for the following compound: CN(C)c1cc(CN2CC3CC3C2)c(O)c2c1C[C@H]1C[C@H]3[C@H](N(C)C)C(O)=C(C(N)=O)C(=O)[C@@]3(O)C(O)=C1C2=O (stereo partly shown) [Crystal form I] 97.9%

Complete the entry with Purity for CN(C)c1cc(CN2CC3CC3C2)c(O)c2c1C[C@H]1C[C@H]3[C@H](N(C)C)C(O)=C(C(N)=O)C(=O)[C@@]3(O)C(O)=C1C2=O (stereo partly shown) [Crystal form VII] 96.8%

Give Purity for CN(C)c1cc(CN2CC3CC3C2)c(O)c2c1C[C@H]1C[C@H]3[C@H](N(C)C)C(O)=C(C(N)=O)C(=O)[C@@]3(O)C(O)=C1C2=O (stereo partly shown) [Amorphous form] 95.8%

====

For each entry below, report its Purity value.
Experiment: Assay 1: stability (influencing factor tests: high temperature, high humidity, illumination) of amorphous form and crystal forms I, II, VII; content and purity by HPLC
Assay type: physicochemical
Conditions: Day 0 (start of stability test)
Enter your answer as a number in %; do not include the unit.

Let me know recorded Purity for CN(C)c1cc(CN2CC3CC3C2)c(O)c2c1C[C@H]1C[C@H]3[C@H](N(C)C)C(O)=C(C(N)=O)C(=O)[C@@]3(O)C(O)=C1C2=O (stereo partly shown) [Amorphous form] , thanks. 98.0

For the molecule CN(C)c1cc(CN2CC3CC3C2)c(O)c2c1C[C@H]1C[C@H]3[C@H](N(C)C)C(O)=C(C(N)=O)C(=O)[C@@]3(O)C(O)=C1C2=O (stereo partly shown) [Crystal form I] , report Purity. 98.2

Answer with the recorded Purity for the molecule listed here: CN(C)c1cc(CN2CC3CC3C2)c(O)c2c1C[C@H]1C[C@H]3[C@H](N(C)C)C(O)=C(C(N)=O)C(=O)[C@@]3(O)C(O)=C1C2=O (single isomer, unassigned) [Crystal form II] 96.4

Give Purity for the following molecule: CN(C)c1cc(CN2CC3CC3C2)c(O)c2c1C[C@H]1C[C@H]3[C@H](N(C)C)C(O)=C(C(N)=O)C(=O)[C@@]3(O)C(O)=C1C2=O (stereo partly shown) [Crystal form VII] 97.4
